# Test system: Plasmodium berghei
# procedure text: Screen against P. berghei liver stage (PbLuc), transformed with Luciferase, at 10uM
# Format: functional, HepG2
# assay context: tested at 10 uM
The whole screen tested about 69,000 compounds, of which about 8,600 (12%) showed an effect of 50% or more. Shown is part of a subset that was picked to be rich in strong results.
Recorded INHIBITION values for a group of compounds are listed next.

> print(dat)
                                   compound  quantity.kind  measured.result
1  CCC(CO)N(Cc1ccccn1)Cc1c[nH]nc1-c1ccc(F)cc1 (configuration not stated)     INHIBITION            78.9%

Lab request: please report INHIBITION under test system Plasmodium berghei for CCC1c2ccccc2CCN1CCNS(C)(=O)=O (configuration not stated)
18%

What measured INHIBITION is associated with CCC1c2ccccc2CCN1CCCS(C)(=O)=O (configuration not stated) on Plasmodium berghei?
50.6%

// map O=C(NCC1CC1)[C@H]1C[C@H]2CN(S(=O)(=O)Cc3ccccc3)C[C@@H]1O2 to recorded INHIBITION (system: Plasmodium berghei)
43.2%

Look up INHIBITION with Plasmodium berghei for this compound: CC(=O)N(C)Cc1ccccc1NCc1c(C)cccc1C
50.2%

What measured INHIBITION is associated with O=C([C@H]1CC[C@@H]2[C@@H](CCN2Cc2nccs2)O1)N1CCCCO1 on Plasmodium berghei?
19.5%

Quick check: INHIBITION on Plasmodium berghei, item O=C(CN1CCC[C@H]1C(=O)O)NCCOc1cccc(Cl)c1 ?
16.1%
